Entries and their measured Emax follow.
molecular target: ghrelin receptor (Homo sapiens, UniProt Q92847); assay: Inositol trisphosphate turnover assay in COS-7 cells transfected with the ghrelin receptor; assay type: cell-based; set-up: expressed in transfected cells; details: COS-7; inverse agonistic activity; read-out: efficacy (Emax)
Sequence (Q92847 whole entry): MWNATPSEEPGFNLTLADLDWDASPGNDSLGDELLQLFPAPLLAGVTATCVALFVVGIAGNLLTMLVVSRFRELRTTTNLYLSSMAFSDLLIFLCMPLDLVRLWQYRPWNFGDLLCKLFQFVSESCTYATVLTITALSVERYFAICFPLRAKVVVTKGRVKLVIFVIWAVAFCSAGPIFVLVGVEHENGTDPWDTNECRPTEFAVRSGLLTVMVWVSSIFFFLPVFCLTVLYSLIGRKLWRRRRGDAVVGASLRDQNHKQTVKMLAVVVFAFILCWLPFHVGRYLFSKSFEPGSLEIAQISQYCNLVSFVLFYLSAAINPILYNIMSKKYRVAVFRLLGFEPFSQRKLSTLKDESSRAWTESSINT

- compound: "CC(C)C[C@H](NC(=O)[C@H](CC(C)C)NC(=O)[C@@H](Cc1csc2ccccc12)NC(=O)[C@H](Cc1ccccc1)NC(=O)[C@@H](Cc1cccc2ccccc12)NC(=O)[C@@H](N)CCCCN)C(N)=O [Peptide 19, K-(D-1-Nal)-F-(D-Bth)-LL-NH2]"
  target under test: "ghrelin receptor (Homo sapiens, UniProt Q92847)"
  qual: "="
  Emax (%): 40
- compound: "CC(C)C[C@H](NC(=O)[C@H](CC(C)C)NC(=O)[C@@H](Cc1c[nH]c2ccccc12)NC(=O)[C@H](Cc1ccccc1)NC(=O)[C@H](NC(=O)[C@@H](N)CCCCN)C(c1ccccc1)c1ccccc1)C(N)=O [Peptide 5, K-(D-Dip)-FwLL-NH2]"
  target under test: "ghrelin receptor (Homo sapiens, UniProt Q92847)"
  qual: ">"
  Emax (%): 80
- compound: "CC(C)C[C@H](NC(=O)[C@H](CC(C)C)NC(=O)[C@@H](Cc1c[nH]c2ccccc12)NC(=O)[C@H](Cc1ccccc1)NC(=O)[C@@H](Cc1c[nH]c2ccccc12)NC(=O)[C@@H](N)CCCCN)C(N)=O [Peptide 2, KwFwLL-NH2, reference compound]"
  target under test: "ghrelin receptor (Homo sapiens, UniProt Q92847)"
  qual: "="
  Emax (%): 37
- compound: "CC(C)C[C@H](NC(=O)[C@H](CC(C)C)NC(=O)[C@@H](Cc1c[nH]c2ccccc12)NC(=O)[C@H](Cc1ccc(C(C)(C)C)cc1)NC(=O)[C@@H](Cc1cccc2ccccc12)NC(=O)[C@@H](N)CCCCN)C(N)=O [Peptide 22, K-(D-1-Nal)-(L-tBf)-wLL-NH2]"
  target under test: "ghrelin receptor (Homo sapiens, UniProt Q92847)"
  qual: "="
  Emax (%): 84
- compound: "CC(C)C[C@H](NC(=O)[C@H](CC(C)C)NC(=O)[C@@H](Cc1c[nH]c2ccccc12)NC(=O)[C@H](Cc1ccccc1)NC(=O)[C@@H](Cc1ccc(-c2ccccc2)cc1)NC(=O)[C@@H](N)CCCCN)C(N)=O [Peptide 8, K-(D-Bip)-FwLL-NH2]"
  target under test: "ghrelin receptor (Homo sapiens, UniProt Q92847)"
  qual: ">"
  Emax (%): 80

All figures here come from patent US9718861B2.
